# credit: patent US11377442B2

assay-target: NR2F6 (Homo sapiens, UniProt P10588)
Construct: expressed in transfected cells; also transient transfection
Sequence (P10588 1-404): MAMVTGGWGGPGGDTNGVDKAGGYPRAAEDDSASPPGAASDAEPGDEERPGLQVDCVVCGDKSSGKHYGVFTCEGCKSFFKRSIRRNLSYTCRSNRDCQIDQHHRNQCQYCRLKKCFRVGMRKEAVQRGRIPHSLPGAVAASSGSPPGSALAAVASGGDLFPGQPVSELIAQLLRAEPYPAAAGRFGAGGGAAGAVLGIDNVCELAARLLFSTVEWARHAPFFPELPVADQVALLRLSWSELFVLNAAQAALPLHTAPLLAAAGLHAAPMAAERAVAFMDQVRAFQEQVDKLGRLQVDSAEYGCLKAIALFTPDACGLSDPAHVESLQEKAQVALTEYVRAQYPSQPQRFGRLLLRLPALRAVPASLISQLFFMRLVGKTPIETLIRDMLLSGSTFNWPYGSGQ
assay-text: NR2F6 agonist screening, Firefly signal cmpd/DMSO
Format: cell-based
particulars: 40 uM; F4
Please go through the items and note down their Firefly F4, cmpd/DMSO (mean).
Please give only the number in your answer, with no unit.

The recorded Firefly F4, cmpd/DMSO (mean) with NR2F6 (Homo sapiens, UniProt P10588) for CCCCN(C)[C@H]1CS(=O)(=O)C[C@@H]1S(=O)(=O)c1ccc(Cl)cc1 was 1.1

The recorded Firefly F4, cmpd/DMSO (mean) with NR2F6 (Homo sapiens, UniProt P10588) for O=S1(=O)C[C@H](NCCc2cccs2)[C@@H](S(=O)(=O)c2ccc(Cl)cc2)C1 was 3.5

The recorded Firefly F4, cmpd/DMSO (mean) with NR2F6 (Homo sapiens, UniProt P10588) for CC1CCN([C@H]2CS(=O)(=O)C[C@@H]2S(=O)(=O)c2cccs2)CC1 was 0.8

The recorded Firefly F4, cmpd/DMSO (mean) with NR2F6 (Homo sapiens, UniProt P10588) for CC(C)CCN[C@H]1CS(=O)(=O)C[C@@H]1S(=O)(=O)c1ccc(Cl)cc1 was 2.3

The recorded Firefly F4, cmpd/DMSO (mean) with NR2F6 (Homo sapiens, UniProt P10588) for C[C@@H]1C[C@H](C)CN([C@H]2CS(=O)(=O)C[C@@H]2S(=O)(=O)c2ccccc2)C1 was 2.6

The recorded Firefly F4, cmpd/DMSO (mean) with NR2F6 (Homo sapiens, UniProt P10588) for C[C@@H]1C[C@H](C)CN([C@H]2CS(=O)(=O)C[C@@H]2S(=O)(=O)c2cccs2)C1 was 0.4
